Listing of entries alongside the reported Kd.
Target: T1, human GPC3-his tag protein (human, UniProt P51654 25-559, limits assumed)
T1 construct: recombinant soluble antigen used as analyte in all Biacore runs; also called recombinant GPC3 protein; rhGPC3-His; not shown: His tag
Assay: SPR Biacore 8K, mAb captured, affinity ranking
Answer format: numeric, nM implied, no suffix.

// solved cases for Kd follow
[[record]]
binder = "52H5D3B8-6#-VH1+VL4 (antibody, V domains shown, humanized) VH: QVQLVQSGAEVKKPGASVKVSCKASGYTFTDYEMHWVRQAPGQGLEWMGAIHPGSGGTAYNQKFKGRVTMTRDTSTSTVYMELSSLRSEDTAVYYCARYYSYAYWGQGTLVTVSS VL: DIVMTQTPLSLSVTPGQPASISCRSSQSLVHSNGNTYLQWYLQKPGQSPKLLIYKVSNRFSGVPDRFSGSGSGTDFTLKISRVEAEDVGVYFCFQSIHVPYTFGGGTKLEIK"
units_symbol = "nM"
meas_value = 1.74

[[record]]
binder = "52H5D3B8-6#-VH4+VL4 (antibody, V domains shown, humanized) VH: QVQLVQSGAEVKKPGASVKVSCKALGYTFTDYEMHWVKQAPGQGLEWIGAIHPGSGGTAYNQKFKGRATMTADKFTSTVYMELSSLRSEDTAVYYCTRYYSYAYWGQGTLVTVSS VL: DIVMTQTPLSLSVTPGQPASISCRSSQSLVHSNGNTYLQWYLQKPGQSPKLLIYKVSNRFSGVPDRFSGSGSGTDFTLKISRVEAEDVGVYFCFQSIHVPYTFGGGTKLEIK"
units_symbol = "nM"
meas_value = 0.857


[Q] Answer with the recorded Kd of 52H5D3B8-6#-VH3+VL3 (antibody, V domains shown, humanized) VH: QVQLVQSGAEVKKPGASVKVSCKALGYTFTDYEMHWVKQAPGQGLEWIGAIHPGSGGTAYNQKFKGRVTLTADTSTSTVYMELSSLRSEDTAVYYCTRYYSYAYWGQGTLVTVSS VL: DIVMTQTPLSLSVTPGQPASISCRSSQSLVHSNGNTYLQWYLQKPGQSPKLLIYKVSNRFSGVPDRFSGSGSGTDFTLKISRVEAEDVGVYYCFQSIHVPYTFGGGTKLEIK only.
[A] 0.721
